molecular target: CD38 antigen on the surface of cells (U266 CD38+, MOLP8, Daudi, T-ALL cell lines, activated T cells) (human, UniProt P28907 1-300)
Measured metric: Kd (nM)
The figure you give is taken to be in nM; do not add the unit.

{"columns": ["Binder", "Unit of measure", "Readout number"],
 "data": [
  ["13F11 scFv (tested as anti-CD38 CARs, versions V1, V2 and V3) (scFv) scFv: QIQLVQSGPELKKPGETVKISCKASGYTFKKYGMNWVKQAPGKGLKWMGWINTNTGEPTYAEEFKGRFAFSLETSASTAYLQINNLKNEDTATYFCARWYYGSTPSSYTMDYWGQGTSVTVSSGGGGSGGGGSGGGGSETTVTQSPASLSVATGEKVTIRCITSTDIDDDMNWYQQKPGEPPKVLISEGNTLRPGVPSRFSSSGYGTDFVFTIENTLSEDVADYYCLQSNNMPYTFGGGTKLEIK", "nM", 0.8]
]}

Input: Which Kd reading was recorded for the binder GMB005 scFv (tested as anti-CD38 tool CARs, versions V1, V2 and V3) (scFv) scFv: EVQLLESGGGLVQPGGSLRLSCAVSGFTFNSFAMSWVRQAPGKGLEWVSAISGSGGGTYYADSVKGRFTISRDNSKNTLYLQMNSLRAEDTAVYFCAKDKILWFGEPVFDYWGQGTLVTVSSASGGGGSGGGGSGGGGSEIVLTQSPATLSLSPGERATLSCRASQSVSSYLAWYQQKPGQAPRLLIYDASNRATGIPARFSGSGSGTDFTLTISSLEPEDFAVYYCQQRSNWPPTFGQGTKVEIK ?
Output: 119

The values you see were collected from patent US20180236053A1.
